Item-by-item account of pIC50
Target: recombinant eIF4E (Homo sapiens (Human), UniProt P06730)
Sequence (P06730 whole entry): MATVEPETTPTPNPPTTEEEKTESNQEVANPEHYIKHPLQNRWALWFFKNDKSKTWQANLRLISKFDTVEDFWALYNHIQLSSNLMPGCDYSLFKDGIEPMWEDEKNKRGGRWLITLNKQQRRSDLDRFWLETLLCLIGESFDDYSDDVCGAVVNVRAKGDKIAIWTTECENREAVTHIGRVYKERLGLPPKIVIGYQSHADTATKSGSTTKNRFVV
Test: Fluorescence polarization competition assay for eIF4E binding potency
Conditions: fluorescence polarization competition, 75 nM recombinant eIF4E, 20 nM EDA-m7GDP-ATTO-550; IC50 class; read-out: elF4E FP
Method: Compounds were screened for eIF4E binding potency using a fluorescence polarization competition assay. All binding reactions were performed in fluorescence polarization buffer (FPB) containing 20 mM Tris pH 7.5, 100 mM NaCl, 1 mM DTT, and 0.02% Tween-20. Final binding reactions contained 75 nM recombinant eIF4E (Beryllium, custom order), 20 nM EDA-m^7GDP-ATTO-550 (Jena Bioscience, NU-827-550) and varying concentrations of the inhibitory compound of interest. […]
pIC50: −log10 of the molar value.

Known pIC50 results, listed for orientation:
**Q:** For the molecule COC1CN(c2c(Cl)cc3nc(C)n(CCOc4ccc(Cl)cc4-c4cc(C)nc5c(C(=O)O)csc45)c(=O)c3c2C#N)C1 [compound 701] , give its measured pIC50 value.
**A:** > 7.30

**Q:** For the molecule Cc1cc(C)c(-c2c(C(F)(F)F)cc3nc(C)n(CCOc4ccc(Cl)cc4-c4cc(C)nc5c(C(=O)O)csc45)c(=O)c3c2C#N)cn1 [compound 350] , give its measured pIC50 value.
**A:** > 7.30

**Q:** For the molecule Cc1nc2cc(Cl)c(Cl)c(C#N)c2c(=O)n1CCOc1ccc(Cl)cc1-c1ccnc2c(C(=O)O)csc12 [compound 207] , give its measured pIC50 value.
**A:** > 7.30

**Q:** For the molecule COC(=O)c1csc2c(-c3cc(Cl)ccc3C#CCn3c(C)nc4cnc(N(C)C5CCN(CC(C)(F)F)CC5)c(C#N)c4c3=O)ccnc12 [compound 980] , give its measured pIC50 value.
**A:** > 7.30

**Q:** For the molecule Cc1cc(-c2cc(Cl)ccc2OCCn2c(C)nc3cc(C(F)(F)F)c(-c4cnc(C)c(C)c4)c(C#N)c3c2=O)c2scc(C(=O)O)c2n1 [compound 389] , give its measured pIC50 value.
**A:** > 7.30

Here is another molecule to look at.
**Q:** For the molecule Cc1nc2cc(C(N)=O)cc(C#N)c2c(=O)n1CCOc1ccc(Cl)cc1-c1ccnc2c(C(=O)O)csc12 [compound 317] , give its measured pIC50 value.
**A:** > 7.30

---

Molecular target: recombinant eIF4E (Homo sapiens (Human))
Assay: Fluorescence polarization competition assay for eIF4E binding potency
Conditions: inhibition of eIF4E/EDA-m7GDP-ATTO-550 binding by 50%; Table 4B calculated values; read-out: IC50
pIC50: −log10 of the molar value.
Outcome Measure: pIC50

I = Cc1nc2cc(C(F)(F)F)cc(S)c2c(=O)n1CCOc1ccc(Cl)cc1-c1ccnc2c(C(=O)O)csc12
II = Cc1nc(N2CCN(CC(F)(F)F)CC2)c(C#N)c2c(=O)n(CCOc3ccc(Cl)cc3-c3ccnc4c(C(=O)O)csc34)c(C)nc12
III = Cc1cc(-c2cc(Cl)ccc2OCCn2c(C)nc3nc(C(F)(F)F)c(C)nc3c2=O)c2scc(C(=O)O)c2n1
**Q:** Arrange the above in rising order of pIC50. // list labels; follow requested order
**A:** I, II, III

---

Molecular target: recombinant eIF4E (Homo sapiens (Human))
Experiment: Fluorescence polarization competition assay for eIF4E binding potency
Conditions: fluorescence polarization competition, 75 nM recombinant eIF4E, 20 nM EDA-m7GDP-ATTO-550; IC50 class; read-out: elF4E FP
Outcome Measure: IC50

**Q:** Lab note: recombinant eIF4E (Homo sapiens (Human)) assay, enter IC50 for `Cc1cc(-c2cc(Cl)ccc2OCCn2c(C)nc3cc(C(F)(F)F)c(CN4C[C@@H](C)O[C@@H](C)C4)c(C#N)c3c2=O)c2scc(C(=O)O)c2n1` here
**A:** < 50 nM

**Q:** Lab note: recombinant eIF4E (Homo sapiens (Human)) assay, enter IC50 for `Cc1cc(-c2cc(Cl)ccc2OCCn2c(C)nc3cc(Cl)c(Nc4cncc(F)c4)c(C#N)c3c2=O)c2scc(C(=O)O)c2n1` here
**A:** < 50 nM

**Q:** Lab note: recombinant eIF4E (Homo sapiens (Human)) assay, enter IC50 for `Cc1cc(-c2cc(Cl)ccc2OCCn2c(C)nc3cc(C(F)(F)F)cc(C#N)c3c2=O)cc(CC(=O)O)n1` here
**A:** 50 to 1000 nM

**Q:** Lab note: recombinant eIF4E (Homo sapiens (Human)) assay, enter IC50 for `Cc1nc2cnc(N(C)C3CC4(C3)CN(C(C)(C)CF)C4)c(C#N)c2c(=O)n1CC#Cc1ccc(Cl)cc1-c1ccnc2c(C(=O)O)csc12` here
**A:** < 50 nM

**Q:** Lab note: recombinant eIF4E (Homo sapiens (Human)) assay, enter IC50 for `Cc1cc(-c2ncc3nc(C)n(CCOc4ccc(Cl)cc4-c4ccc(C)c5c(C(=O)O)csc45)c(=O)c3c2C#N)ccn1` here
**A:** < 50 nM

**Q:** Lab note: recombinant eIF4E (Homo sapiens (Human)) assay, enter IC50 for `N#Cc1cc2c(=O)n(CCOc3ccc(Cl)cc3-c3ccc(C(=O)O)s3)cnc2cn1` here
**A:** 50 to 1000 nM

New cases:
**Q:** Lab note: recombinant eIF4E (Homo sapiens (Human)) assay, enter IC50 for `N#Cc1cc2c(=O)n(CCOc3ccc(O)cc3-c3cccc(C(=O)O)c3)cnc2cn1` here
**A:** > 1000 nM

**Q:** Lab note: recombinant eIF4E (Homo sapiens (Human)) assay, enter IC50 for `Cc1nc2ccc(OCCN(C)C)c(C#N)c2c(=O)n1CCOc1ccc(Cl)cc1-c1ccnc2c(C(=O)O)csc12` here
**A:** < 50 nM

**Q:** Lab note: recombinant eIF4E (Homo sapiens (Human)) assay, enter IC50 for O=C(O)c1cccc(-c2cc(Cl)ccc2OCCn2cnc3ccncc3c2=O)c1 [compound 13] here
**A:** > 1000 nM

**Q:** Lab note: recombinant eIF4E (Homo sapiens (Human)) assay, enter IC50 for `Cc1cc(-c2cc(Cl)ccc2OCCn2c(C)nc3c(C(F)F)ncc(C#N)c3c2=O)c2scc(C(=O)O)c2n1` here
**A:** < 50 nM

**Q:** Lab note: recombinant eIF4E (Homo sapiens (Human)) assay, enter IC50 for `Cc1sc2c(-c3cc(Cl)ccc3OCCn3c(C)nc4cc(C(F)(F)F)c(C)c(C#N)c4c3=O)cn(C)c(=O)c2c1C(=O)O` here
**A:** < 50 nM

**Q:** Lab note: recombinant eIF4E (Homo sapiens (Human)) assay, enter IC50 for `Cc1nc2cnc(C3CCC(F)(F)CC3)c(C#N)c2c(=O)n1CCOc1ccc(Cl)cc1-c1ccnc2c(C(=O)O)csc12` here
**A:** < 50 nM

**Q:** Lab note: recombinant eIF4E (Homo sapiens (Human)) assay, enter IC50 for Cc1nc2cc(C(F)(F)F)cc(C#N)c2c(=O)n1CCOc1ccc(Cl)cc1-c1ccnc2c(C(=O)O)csc12 [Compound 272] here
**A:** < 50 nM

**Q:** Lab note: recombinant eIF4E (Homo sapiens (Human)) assay, enter IC50 for `Cc1cc(-c2cc(Cl)ccc2OCCn2c(C)nc3cc(C(F)(F)F)c(CN(C)C)c(C#N)c3c2=O)c2scc(C(=O)O)c2n1` here
**A:** < 50 nM

---

Biological target: recombinant eIF4E (Homo sapiens (Human), UniProt P06730)
Assay: Fluorescence polarization competition assay for eIF4E binding potency
Settings: inhibition of eIF4E/EDA-m7GDP-ATTO-550 binding by 50%; Table 4B calculated values; read-out: IC50
Outcome Measure: IC50 (nM)

**Q:** For the compound Cc1cc(-c2cc(Cl)ccc2OCCn2c(C)nc3cc(C(F)(F)F)c(C(C)N(C)C)c(C#N)c3c2=O)c2scc(C(=O)O)c2n1 (centres unmarked) [compound 711] , give its measured IC50 value.
**A:** 77.5

**Q:** For the compound Cc1nc2cc(C(F)(F)F)c(N3CCN(CCO)CC3)c(C#N)c2c(=O)n1CCOc1ccc(Cl)cc1-c1ccnc2ccsc12 [compound 852] , give its measured IC50 value.
**A:** 21.4

**Q:** For the compound CC(=O)Nc1cc2c(=O)n(CCOc3ccc(Cl)cc3-c3cccc(C(=O)O)c3)cnc2cn1 [compound 131] , give its measured IC50 value.
**A:** 600

**Q:** For the compound Cc1nc2c(F)cc(S(=O)(=O)N(C)C)c(C#N)c2c(=O)n1CCOc1ccc(Cl)cc1-c1ccnc2c(C(=O)O)csc12 [compound 288] , give its measured IC50 value.
**A:** 46.1

**Q:** For the compound Cc1cc(-c2cc(Cl)ccc2OCCn2c(C)nc3cnc(OC4CN(C)C4)c(C#N)c3c2=O)c2sc(C)c(C(=O)O)c2n1 [compound 846] , give its measured IC50 value.
**A:** 37.9

A = CCc1ncc2nc(C)n(CCOc3ccc(Cl)cc3-c3cc(C)nc4c(C(=O)O)csc34)c(=O)c2c1C#N [compound 923]
B = CCc1cc(-c2cc(Cl)ccc2OCCn2c(C)nc3cnc(N)c(C#N)c3c2=O)c2scc(C(=O)O)c2n1 [compound 1071]
C = Cc1cccc(-c2c(C(F)(F)F)cc3nc(C)n(CCOc4ccc(Cl)cc4-c4cc(C)nc5c(C(=O)O)csc45)c(=O)c3c2C#N)n1 [compound 675]
D = Cc1ccc(-c2cc(Cl)ccc2OCCn2c(C)nc3cnc(-c4ccncc4)c(C#N)c3c2=O)c2scc(C(=O)O)c12 [compound 762]
E = Cc1nc2cnc(N(C)C3CCN(CC(F)(F)CF)CC3)c(C#N)c2c(=O)n1CC#Cc1ccc(Cl)cc1-c1ccnc2c(C(=O)O)csc12 [compound 1134]
**Q:** List items by IC50 in falling order. // list labels; follow requested order
**A:** B, D, E, C, A
(B: 54 nM, D: 33.7 nM, E: 15.3 nM, C: 7.77 nM, A: 3.71 nM)

a = COc1ncc(C#N)c2c(=O)n(CCOc3ccc(Cl)cc3-c3ccc(C)c4c(C(=O)O)csc34)c(C)nc12 [compound 726]
b = Cc1cc(-c2cc(Cl)ccc2OCCn2c(C)nc3cc(Cl)c(N(C)C)c(C#N)c3c2=O)c2scc(C(=O)O)c2n1 [compound 696]
**Q:** I'd appreciate it if you could identify which of a and b has the greater IC50. Select an item and report its label.
**A:** a
(a: 53 nM, b: 8.94 nM)

A = Cc1cc(-c2cc(Cl)ccc2OCCn2c(C)nc3cc(C(F)(F)F)c(OC4CC4)c(C#N)c3c2=O)c2scc(C(=O)O)c2n1 [compound 1034]
B = Cc1nc2c(N3CCN(C)CC3(C)C)ncc(C#N)c2c(=O)n1CCOc1ccc(Cl)cc1-c1ccnc2c(C(=O)O)csc12 [compound 816]
C = Cc1cc(-c2cc(Cl)ccc2OCCn2c(C)nc3cc(Cl)c(N4CCC(O)C4)c(C#N)c3c2=O)c2scc(C(=O)O)c2n1 (centres unmarked) [compound 1054]
D = O=C(O)c1csc2c(-c3cc(Cl)ccc3OCCn3c(=O)c4ccccc4c4cnncc43)ccnc12 [compound 658]
E = Cc1nc2cc(C(F)(F)F)cc(C#N)c2c(=O)n1C/C=C/c1ccc(Cl)cc1-c1ccnc2c(C(=O)O)csc12 [compound 255]
**Q:** List items by IC50 in falling order. // list labels; follow requested order
**A:** D, E, A, C, B
(D: 1290 nM, E: 78.5 nM, A: 37.9 nM, C: 18.6 nM, B: 6.87 nM)
